System: M. tb, strain H37Rv
Assay Procedure: MABA minimum inhibitory concentration assay (aerobic)
Type: cell-based, Mycobacterium tuberculosis
Test Settings: Mycobacterium tuberculosis, H37RV, aerobic; read-out: MIC MABA
Reported Metric: MIC (µM)
Numbers only, in µM.

| Molecule | MIC (µM) |
| --- | --- |
| CC1(CN2CCN(C(=O)c3ccc(F)cc3)CC2)CCn2cc([N+](=O)[O-])nc2O1 (stereo not drawn) [compound 159] | 93 |

For every item below, please supply its MIC.
1. CC1(COc2ccc(-c3ccc(F)nc3)cc2)CCn2cc([N+](=O)[O-])nc2O1 (stereo not drawn) [compound 56]
2. O=[N+]([O-])c1cn2c(n1)OC(COc1cccc(-c3ccc(F)nc3F)n1)CC2 (stereo not drawn) [compound 119]
3. O=[N+]([O-])c1cn2c(n1)OC(COc1ccc(-c3ccc(F)nc3)cc1)CC2 (stereo not drawn) [compound 55]
4. CC1(COCc2ccc(-c3ccc(F)cc3)cc2)CCn2cc([N+](=O)[O-])nc2O1 (stereo not drawn) [compound 27]

1. 0.29
2. 4.3
3. 0.24
4. 0.085
